Test system: 786-0
Assay: NCI tumour cell line growth inhibition, 48 h
Calls of active or inactive are those of the source. Cut-off read from the data, not from the text of the source: active = GI50 up to about 1.1 µM and inactive = higher.
Choose the fitting class; nothing outside true for active, false for inactive is accepted.

CCN(CCCl)c1cc(CN(C)C)cc(NC(=O)C23CCC(C(=O)Nc4cc(CN(C)C)cc(N(CC)CCCl)c4)(CC2)CC3)c1 ... true
COc1ccccc1NC(=O)CC(=O)N1N=C(C)C(/N=N/c2ccc(S(N)(=O)=O)cc2)C1=O (stereo not given) ... false
CN1C(OCc2ccccc2)c2c(ccc3c2OCO3)C2C=Cc3cc4c(cc3C21)OCO4 (stereo not given) ... false
CCC1=C(c2ccc(OC)cc2)CC[C@@]2(CCNC2=O)[C@@H]1C ... false

Qu. Lab log entry: COc1ccc(C/C=C(\C)CCO)cc1 — outcome as called in the assay?
Ans. false

Qu. Recorded test call requested for CCOc1ccccc1NC(=O)C(=O)c1c(O)c2ccc(O)cc2oc1=O
Ans. false

Qu. Please share the test call associated with O=C(O)C1=CCCc2ccc3ccccc3c21 .
Ans. false

Qu. Dear colleague, could you share the recorded outcome for CCOC(=O)c1nc2ccccc2nc1NCc1cc(OC)c(OC)c(OC)c1 when you have a moment?
Ans. false

Qu. Record request — test call for Cn1cc/c(=N\N=c2/ccn(C)c3ccccc23)c2ccccc21
Ans. false

Qu. What was the test verdict on O=C1CSC2(CC(/C=C/c3ccccc3O)=NN2c2cccc(S(=O)(=O)O)c2)N1c1nc2ccccc2s1 (stereo not given) ?
Ans. false

Qu. Identify the outcome logged in this assay for the molecule shown: O=C(C/N=C(\CN(c1ccccc1)c1ccccc1)Oc1c(Cl)cc(Cl)cc1Cl)N1c2ccccc2Sc2ccccc21
Ans. false

Qu. Hey, what did the test say about CN(C)Cc1cc(/N=N/c2ccccc2)cc(CN(C)C)c1O ?
Ans. false

Qu. How was C/C=C1\CN2CCc3c([nH]c4ccccc34)C2C=C1CCO (stereo not given) classified in this test?
Ans. false

Qu. Could you check what this test reported for Cc1cc(C)nc(NC(=O)COc2ccc(Cl)cc2)c1 ?
Ans. false

Qu. Just curious, what result did CCOC(=S)SSSC(=S)OCC get here?
Ans. false

###

Tested on: MDA-MB-231
Test: NCI tumour cell line growth inhibition, 48 h
The source made the active and inactive calls. Cut-off read from the data, not from the text of the source: active = GI50 up to about 1.1 µM and inactive = higher.
Response enum: Yes (active), No (inactive)

// known answers, use as guide
CCOc1ccc(NCc2cc(OC)c(OC)c(OC)c2)cc1 ... No
Cc1cc(CC(O)(C(F)(F)F)C(F)(F)F)cc(CC(O)(C(F)(F)F)C(F)(F)F)n1 ... No
COC(=O)C1=C(O)C(C(=O)OC)[C@]2(O)[C@H](C(=O)OC)[C@H]1C[C@@H](c1ccc(O)cc1)[C@H]2C(=O)OC (some centres not stated) ... No
CCOC(=O)c1ccc(-c2cccs2)n1C ... No
COc1ccc2c(CCN)c(C(=O)O)[nH]c2c1 ... No
C=CC(C)(C)C(=C)C(=O)N(C)c1ccccc1I ... No

Qu. Hello, I am checking results. What call was entered for CN1C(=O)N(C)C2(CCN(CCCCCCF)CC2)C1=O ?
Ans. No

Qu. In this assay, the call recorded for O=C1OC2C(O)C(=O)OC2C1O (configuration not stated) was what?
Ans. No

###

Each entry below carries its recorded GI50.
Tested on: U-251
Assay: NCI tumour cell line growth inhibition, 48 h
The source made the active and inactive calls. Rule as the data show it: active = GI50 up to about 1.1 µM and inactive = higher.

Field: example entries. Status: answers known.
C=C1C(=O)O[C@H]2C1C[C@@H](OC(C)=O)/C(C)=C/CC[C@@]1(C)O[C@H]21 (stereo not given in full) ... 70.1 µM (inactive)
CC(C)(C)OC(=O)NCC(=O)NC1C/C(=N\O)c2sccc21 (stereo not given) ... > 100 µM (inactive)
CC1CC(=O)N(N(C)C)C(C#N)(C#N)C1(C#N)C#N (stereo not given) ... 20.9 µM (inactive)
O=C(O)CNS(=O)(=O)c1ccc(NC(=O)c2cccc([N+](=O)[O-])c2)cc1 ... > 100 µM (inactive)
CC(C)C(C/C=C1\CC(CO)(COC(=O)C(C)(C)C)OC1=O)C(C)C (stereo not given) ... 10.7 µM (inactive)
O=C1c2cc3ccccc3cc2C2(c3ccc(Cl)cc3)N[C@H]3CCCC[C@@H]3N12 (stereo not given in full) ... 14.2 µM (inactive)

Qu. Please look up its GI50: COc1cc2nc3n(c(=O)c2cc1OC)-c1ccc([N+](=O)[O-])cc1C3=O
Ans. 46.7 µM (inactive)

Qu. Bench note: what GI50 did O=C1c2c(c(-c3ccccc3)c(-c3ccccc3)c(-c3ccccc3)c2-c2ccccc2)C(=O)N1c1cccc(Br)c1 show?
Ans. > 100 µM (inactive)

Qu. What value of GI50 has been recorded for this entry: CCN1C(=O)C(=CN)C(=O)N(CC)C1=O
Ans. 10 µM (inactive)

Qu. Recorded GI50 for O=C(Cl)c1cc([N+](=O)[O-])cc([N+](=O)[O-])c1 , please?
Ans. > 100 µM (inactive)

###

System: SF-539
Experiment: NCI tumour cell line growth inhibition, 48 h
Active and inactive are the calls of the source. Cut-off read from the data, not from the text of the source: active = GI50 up to about 1.1 µM and inactive = higher.
Allowed answers: yes (1) for active, no (0) for inactive

A selection of reference data follows.
Cc1ccc(-n2cc(-c3ccc(Cl)cc3)c3c2N=CN2N=C(c4ccco4)NC32)cc1 (stereo unspecified) ... no (0)
COc1cc2c3c(c1OC)/C(=N/OS(=O)(=O)c1ccc(C)cc1)CC3N(S(=O)(=O)c1ccc(C)cc1)CC2 (stereo unspecified) ... no (0)
CCC(CO)Nc1nc(NCc2ccccc2)c2ncn(C(C)C)c2n1 (stereo not drawn) [(RS)-ROSCOVITINE] ... no (0)
Cn1cc/c(=N\N=c2/ccn(C)c3ccccc23)c2ccccc21 ... no (0)
C=C(CC)C[C@@H]1C[C@]2(C(=O)OC)c3[nH]c4ccccc4c3CCN2C1=O ... no (0)
N[C@H](C(=O)O)[C@@H]1CC(Cl)=NO1 ... no (0)
COc1ccc(C/C=C(\C)CCO)cc1 ... no (0)
CN(C)CCONC(=O)C12CC3CC(CC(C3)C1)C2 ... no (0)
COc1ccc(-c2cc(-c3ccco3)c(C#N)c(=S)n2C2OC(CO)C(O)C(O)C2O)cc1 (stereo unspecified) ... no (0)
COC(=O)CNC(=O)/C=C/[C@H](O[Si](C)(C)C(C)(C)C)[C@H](/C=C/C(=O)NCC(=O)OC)O[Si](C)(C)C(C)(C)C ... no (0)

Qu. Any idea what this test logged for COc1cccc(NC(=O)CC(=O)N2N=C(N3c4ccccc4Sc4ccccc43)CC2c2ccccc2)c1 (stereo unspecified) ?
Ans. no (0)

Qu. Outcome? COc1cc2c[n+](C)c3c4ccccc4ccc3c2cc1OC
Ans. no (0)

Qu. For ClCc1nn(-c2ccccc2)c(CCl)c1CCl , which call appears in the assay record?
Ans. no (0)

Qu. Can you look up the reported call for Cc1ccc(/C=C2\Sc3scc(-c4ccccc4)[n+]3C2=O)cc1 for me?
Ans. no (0)

Qu. What did this assay record as the result for COc1ccccc1NC(=O)CC(=O)N1N=C(C)C(/N=N/c2ccc(S(N)(=O)=O)cc2)C1=O (stereo unspecified) ?
Ans. no (0)

Qu. What is the recorded call for this molecule in the test? CC(C)(O)c1cc2c(cc1C(C)(C)O)-c1ccccc1-2
Ans. no (0)

Qu. Could you kindly confirm the outcome this assay logged for Cc1c(C(=O)O)n2cnnc2c2ccccc12 ?
Ans. no (0)

Qu. Could you kindly confirm the outcome this assay logged for N#CNc1nc(N)c(-c2ccc(Cl)cc2)c(C(=O)Nc2nccs2)n1 ?
Ans. no (0)

Qu. Outcome logged for CC1CCC(C(C)(C)c2ccccc2)C(=O)C1 (stereo unspecified) in this assay:
Ans. no (0)

Qu. Called result for CO[C@H]1[C@H](O)[C@H](O[C@H]2CC[C@@]3(C)[C@H](CC[C@@H]4[C@@H]3CC[C@]3(C)[C@@H](C5=CC(=O)OC5)CC[C@]43O)C2)O[C@@H](C)[C@@H]1O
Ans. yes (1)

Qu. Give the logged outcome of this assay for the following molecule: Cc1cccc2c(N)c3cccc(C(=O)NCC[N+](C)(C)Cc4c([N+](=O)[O-])ncn4C)c3nc12
Ans. no (0)

###

# GI50 per entry
System: SK-MEL-5
Assay: NCI tumour cell line growth inhibition, 48 h
The source made the active and inactive calls. Cut-off read from the data, not from the text of the source: active = GI50 up to about 1.1 µM and inactive = higher.

Consider the worked cases shown below.
C/C1=C\[C@H](C)C[C@H](C)OC(=O)C[C@H](c2ccc(O)cc2)NC(=O)[C@H](Cc2ccc(O)c(I)c2)N(C)C(=O)[C@H](C)NC(=O)[C@@H](C)C1 ... 0.0169 µM (active)
COc1cc2c[n+](C)c3c4ccccc4ccc3c2cc1OC ... 2.87 µM (inactive)
CN(C)/N=C(/c1nc2ccc([N+](=O)[O-])cc2nc1O)C(O)c1ccco1 (centres undefined) ... 70.1 µM (inactive)
CC(=O)C(=[N+]=[N-])C(=O)NCC#N ... > 10 µM (inactive)
CCOC(=O)C(C)c1c(C(=O)c2ccc(C)nc2)c2ccccc2n1C (centres undefined) ... > 100 µM (inactive)

Qu. // GI50 lookup, key: C[C@@H]1CC[C@]2(C)C3(C)CC[C@]2(OC3=O)[C@@]12CC(c1ccoc1)OC2=O (some centres undefined)
Ans. 62.5 µM (inactive)

Qu. Which GI50 is listed for COc1c2c(c(OC)c3c(=O)cc(C/C(=N/NC(=O)C[n+]4ccccc4)C(=O)Nc4cc(C)ccc4C)oc13)OCO2 ?
Ans. > 100 µM (inactive)

Qu. Give the measured GI50 of COc1cccc(NC(=O)CC(=O)N2N=C(N3c4ccccc4Sc4ccccc43)CC2c2ccccc2)c1 (centres undefined) .
Ans. > 100 µM (inactive)

Qu. Given CO[C@H]1Nc2c(ccc(C)c2O)C(=O)N2C=C(/C=C/C(N)=O)C[C@@H]12 , state its recorded GI50.
Ans. 0.0168 µM (active)
